EC50 values, listed per item
assay.target: UniProtKB P11473
Sequence (P11473 127-423 limits assumed): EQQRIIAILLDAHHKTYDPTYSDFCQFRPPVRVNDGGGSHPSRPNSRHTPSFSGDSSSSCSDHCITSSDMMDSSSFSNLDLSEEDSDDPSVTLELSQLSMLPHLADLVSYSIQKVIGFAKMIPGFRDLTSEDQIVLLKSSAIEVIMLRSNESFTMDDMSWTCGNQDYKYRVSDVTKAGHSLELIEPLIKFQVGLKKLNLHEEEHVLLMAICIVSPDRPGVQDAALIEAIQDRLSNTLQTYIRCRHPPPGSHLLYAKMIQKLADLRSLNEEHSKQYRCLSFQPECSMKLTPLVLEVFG
test.name: Human vitamin D receptor (VDR) agonist activity, GAL4-VDR LBD luciferase transactivation assay in transiently transfected HEK293 cells
condition: hybrid VDR-GAL4 receptor, pFR-Luc luciferase reporter, 16 h incubation, read-out: Effective concentrations of half maximal activation (EC50)

{"molecule": "CC/C(=C\\C=C\\C(O)(CC)CC)c1cccc(CCc2ccc(CO)c(C(C)O)c2)c1 (racemic)", "EC50": "113 nM"}

In the following, a different molecule is considered.
Value lookup for EC50; key = CC/C(=C\C=C\C(O)(CC)CC)c1cccc(CCc2ccc(C(C)O)c(CO)c2)c1 (racemic)
7 nM

These data points were gathered from patent US10849838B2.
